Biological target: menin/MLL (terbium chelate-labeled menin, FITC-MBM1 peptide) (Homo sapiens, UniProt O00255, T541A)
Construct: Menin (a.a 1-610-6xhis tag, 2.3 mg/mL in 20 mM Hepes)
Sequence (O00255 with tags, fused parts or gaps T541A): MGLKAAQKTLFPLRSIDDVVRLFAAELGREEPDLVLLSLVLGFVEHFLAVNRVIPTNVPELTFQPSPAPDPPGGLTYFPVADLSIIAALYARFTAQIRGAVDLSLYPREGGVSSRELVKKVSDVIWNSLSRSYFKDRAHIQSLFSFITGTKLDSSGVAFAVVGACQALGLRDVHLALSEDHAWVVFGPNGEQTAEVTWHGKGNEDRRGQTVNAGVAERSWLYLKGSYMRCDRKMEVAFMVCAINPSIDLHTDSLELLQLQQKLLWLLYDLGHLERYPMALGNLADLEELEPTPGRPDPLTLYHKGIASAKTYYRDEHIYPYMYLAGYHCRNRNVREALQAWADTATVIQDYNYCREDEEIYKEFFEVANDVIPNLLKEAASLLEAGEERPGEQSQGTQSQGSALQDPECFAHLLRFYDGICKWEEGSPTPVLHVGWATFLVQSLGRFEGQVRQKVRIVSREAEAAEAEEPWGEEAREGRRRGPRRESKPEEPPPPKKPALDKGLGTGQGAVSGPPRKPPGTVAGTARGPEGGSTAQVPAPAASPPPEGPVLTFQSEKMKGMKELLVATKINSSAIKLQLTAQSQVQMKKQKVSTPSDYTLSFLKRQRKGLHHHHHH
Test: Menin/MLL homogenous time-resolved fluorescence (HTRF) assay
Conditions: 30 min incubation
Rule for this label: YES means IC50 is less than 100 pM; NO means IC50 is at least 100 pM.

COMPOUND	ASSIGNED_LABEL
CC(=O)N1CCC2(CCCC(N3CC(Cc4cn(-c5ccc(F)cc5C(=O)N(C)C(C)C)c5cncc(C)c45)C3)C2)C1 (stereo not shown) [Compound 303]	NO
CNC(=O)N1CCC(CN2CCC(Cc3cn(-c4ccc(F)cc4C(=O)N(C)C(C)C)c4cncc(C)c34)CC2)CC1 [Compound 202]	YES
CCC(C1CCN(C(C)=O)CC1)N1CC[C@@H](Cc2cn(-c3ccc(F)cc3C(=O)N(C)C(C)C)c3cncc(C)c23)C1 (single isomer, unassigned) [Compound 246]	YES
CNC(=O)[C@H]1CC[C@H](CN2CCC(Cc3cn(-c4ccc(F)cc4C(=O)N(C)C(C)C)c4cncc(C)c34)C2)CC1 (single isomer, unassigned) [Compound 70]	NO
CCN(C(=O)c1cc(F)ccc1-n1cc(CC2CN(C(C(C)C)[C@H]3C[C@@H](N4CCN(S(C)(=O)=O)CC4)C3)C2)c2c(C)cncc21)C(C)C (stereo partly shown) [Compound 37a]	NO
CC(=O)N1CCC(N2CC(Cc3cn(-c4ccc(F)cc4C(=O)N(C)C(C)C)c4cncc(C)c34)C2)C[C@H]1C (single isomer, unassigned) [Compound 292a]	NO

Read the next record carefully.
Does the reported IC50 of CC(=O)N1CC2CC(CN3CC(Cc4cn(-c5ccc(F)cc5C(=O)N(C)C(C)C)c5cncc(C)c45)C3)CC(C2)C1 (stereo not shown) [Compound 300] stay below 100 pM?
NO

---

Target: menin/MLL (terbium chelate-labeled menin, FITC-MBM1 peptide) (Homo sapiens, UniProt O00255, T541A)
Construct: Menin (a.a 1-610-6xhis tag, 2.3 mg/mL in 20 mM Hepes)
Assay: Menin/MLL homogenous time-resolved fluorescence (HTRF) assay
Settings: 30 min incubation
ASSAY_READOUT: IC50 (nM)
The reply should be a number in nM, with the unit left off.

# count of solved cases: 3
                                   molecule  numeric_readout
0  CC(=O)N1CCC(CN2CC(Cc3cn(-c4ccc(F)cc4C(=O)N(C)C(C)C)c4cncc(C)c34)C2)C1 (stereo not shown)            0.079
1  COCCNCCCC(C(C)C)N1CC[C@@H](Cc2cn(-c3ccc(F)cc3C(=O)N(C)C(C)C)c3cncc(C)c23)C1 (mixture of isomers)            0.054
2  CNC(=O)c1cncc(N2CCC(N3CC(Cc4cn(-c5ccc(OC)cc5C(=O)N(C)C(C)C)c5cncc(C)c45)C3)CC2)n1            0.304

# input molecule: Cc1cncc2c1c(C=C1CCN(C)C1)cn2-c1ccc(F)cc1C(=O)N(C)C(C)C (single isomer, unassigned) [Compound 524a] ; wanted: its IC50
19

# input molecule: CC(=O)N1CCN(CCCC(C(C)C)N2CC[C@@H](Cc3cn(-c4ccc(F)cc4C(=O)N(C)C(C)C)c4cncc(C)c34)C2)CC1 (mixture of isomers) ; wanted: its IC50
0.365

# input molecule: `CC(=O)N1CCC(C)(CN2CC[C@@H](Cc3cn(-c4ccc(F)cc4C(=O)N(C[C@@H](C)O)C(C)C)c4cncc(C)c34)C2)CC1` ; wanted: its IC50
0.193

# input molecule: Cc1cncc2c1c(C[C@@H]1CCN(CC3CCOCC3)C1)cn2-c1ccc(F)cc1C(=O)N(C[C@@H](C)O)C(C)C (single isomer, unassigned) [Compound 365a] ; wanted: its IC50
0.102
